Source listed as paper PMC8231349.

Test system: human prostate cancer cells (DU145)
Assay: MTT cell viability assay, DU145
Assay type: cell-based
Conditions: Homo sapiens, DU-145; DU145 cells, MTT, 72 h
pIC50: −log10 of the molar value.
Property name: pIC50

- O=c1[nH]cc(F)c(=O)[nH]1 [Compound 5-FU, 5-Fluorouracil, reference compound]: 4.50
